- testName: coupled detection enzyme interference, dose response, artefact control for MgcRacGAP inhibitor project, biochemical, coupled enzyme counter-screen (AID 624351);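 note: signal is the ADP detection kit reading of free GDP without any GAP enzyme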
- conditions: ADP Hunter coupled enzyme counter-screen, fluorescence, no MgcRacGAP; series mostly up to 80 µM
Among all 2,400 compounds or so, about 1,400 (58%) were called active.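 Rule for the calls: active = inhibition of 30% or more at any tested dose; inconclusive = primary hits over the limit that were never retested; inactive = the rest.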 The set was probably picked from earlier hits. Some of the results follow.
Outcome codes: active, inactive

compound	cat
Cc1cc(N(C)C)ccc1N=Nc1ccc(N)cc1	active
O=C1NC(=O)N(CCC2=CCCCC2)C(=O)/C1=C/c1ccc(O)cc1	inactive
CSc1ccc(CN2CCN(Cc3ccccc3Cl)CC2)cc1	inactive
COP(=S)(OC)SCn1nnc2ccccc2c1=O	inactive
COc1cccc(CN2CCN(Cc3cccc(F)c3)CC2)c1	inactive
CN1CCN(c2ccc(N)c(N3CCN(C)CC3)c2)CC1	active
O=c1c2ccccc2nc(/C=C/c2ccc(O)cc2)n1-c1ccccc1O	active
CC1CN1P(=O)(Oc1ccc2ccccc2c1)N1CC1C (configuration not stated)	inactive
c1ccc2c(c1)Nc1ccccc1S2	active
O=C(O)CCn1cc(C=C2C(=O)NC(=S)NC2=O)c(-c2ccccc2)n1	inactive
CN(C)c1ccc2c(c1)N=C(c1ccco1)OP2(=S)N1CCOCC1 (configuration not stated)	inactive
CCc1c(C)nc(N)nc1N1N=C1SC(C(C)=O)C(C)=O	inactive
N/C(=N\[N+](=O)[O-])N/N=C/c1ccc(O)cc1	active
COc1ccc(/C=C2\C(=O)NC(=S)N(C)C2=O)cc1C	inactive
CCN1CCN(CC(c2ccccc2)c2ccccc2)CC1	inactive
CCN1CCN(c2ccc(N)c(C)c2)CC1	active
O=C1CN(O)C(c2ccccc2)=c2cc(Br)ccc2=N1	inactive
Nc1ccc(-c2ccc(N)cc2)cc1	active
CSc1nc(N)c(N=Nc2ccc([As](=O)(O)O)cc2)c(=O)[nH]1	inactive
O=P(Oc1ccc(-c2ccccc2)cc1)(N1CC1)N1CC1	inactive
Cc1ccc(OCC(=O)N2CCN(Cc3ccc([N+](=O)[O-])cc3)CC2)cc1	inactive
CCc1ccc(CNCCc2c[nH]c3ccccc23)cc1	inactive
CN1C2CCC1/C(=C/c1ccccn1)C(=O)/C2=C\c1ccccn1	inactive
Cc1cc(-c2ccc(N)c(C)c2)ccc1N	active
CN(C)c1ccc(/C=C2/C(=O)NC(=O)N(Cc3ccco3)C2=O)cc1	inactive
COc1cc(N2CCOCC2)ccc1/C=C1\C(=O)NC(=O)N(Cc2ccc3c(c2)OCO3)C1=O	inactive
O=C1NC(=S)N(C2CC2)C(=O)/C1=C/c1ccc2c(c1)CCN2CCCCl	inactive
CN(C)c1ccc(NC(=O)CN2C(=O)CN=C(c3ccccc3)c3ccccc32)cc1	active
CC1CCCCN1Cc1cccnc1 (configuration not stated)	inactive
COc1cc(-c2ccc(N)c(OC)c2)ccc1N	active
NC(N)=N/N=C/c1ccc(N(c2ccccc2)c2ccccc2)cc1	inactive
Cc1ccc2c(C)c3ccc4ccccc4c3c[n+]2c1	inactive
Cc1cc(/C=C2\C(=O)NC(=O)N(c3cccc(F)c3)C2=O)c(C)n1-c1cc(C(=O)O)cc(C(=O)O)c1	inactive
Clc1ccc(OCC#CCN2CCCCCC2)cc1	inactive
Cc1ccccc1N1C(=O)NC(=O)/C(=C\c2cnn(-c3ccccc3)c2)C1=O	inactive
COc1ccc(-n2c(/C=C/c3ccc(O)c(OC)c3)nc3ccccc3c2=O)cc1	active
COc1cc(OC)c(OC)cc1/C=C1\C(=O)NC(=O)N(Cc2ccccc2)C1=O	inactive
Cc1nn(CCC#N)c2c1P(=S)(N1CCCC1)OC(c1ccc(F)cc1)=N2 (configuration not stated)	inactive
O=C(O)c1ccc(-n2c(O)c(/C=C3\C=Nc4ccccc43)c(=O)[nH]c2=O)cc1	inactive
O=P1(c2ccccc2)Nc2ccccc2N1c1ccccc1 (configuration not stated)	active
COc1ccc(/C=C2/C(=O)NC(=O)N(c3ccc(C)c(C)c3)C2=O)cc1CN1C(=O)c2ccccc2C1=O	inactive
Cc1cccc(OCC(=O)N2CCN(Cc3ccncc3)CC2)c1	inactive
COc1ccc(N2CC2c2ccncc2)cc1 (configuration not stated)	inactive
Cc1ccc(N2C(=O)NC(=O)/C(=C/c3ccoc3)C2=O)cc1	inactive
CN1CCN(c2ccc(N)cc2)CC1	active
O=C(CNC1CCCC1)Nc1ccc(N2CCCCCC2)cc1	inactive
Cc1ccc(CN2CCN(Cc3ccccc3F)CC2)cc1	inactive
